conditions: 298.15 K; Liquid
measure-name: mass density (kg/m3)
Response body: numeric value in kg/m3, unit text excluded.

Solved entries (count: 2):
COCCOCCO: 1015.41
COCCO: 960.088

Lookup: Return reported mass density; argument: CCCCOCCO
Found: 895.91

Lookup: Return reported mass density; argument: CCCOCCO
Found: 907.151

Lookup: Return reported mass density; argument: CCOCCO
Found: 925.027

* * *

compounds and their reported speed of sound
conditions: 293.15 K; Liquid; Sing-around technique in a fixed-path interferometer
Response body: numeric value in m/s, unit text excluded.

Lookup: Return reported speed of sound; argument: CCCOCCO
Found: 1316.6

Lookup: Return reported speed of sound; argument: CCOCCO
Found: 1319.9

Lookup: Return reported speed of sound; argument: COCCOCCO
Found: 1432.4

Lookup: Return reported speed of sound; argument: CCCCOCCO
Found: 1322.5

Lookup: Return reported speed of sound; argument: COCCO
Found: 1359.2

* * *

compounds and their reported speed of sound
conditions: 303.15 K; Liquid; Sing-around technique in a fixed-path interferometer
Response body: numeric value in m/s, unit text excluded.

Solved entries (count: 4):
COCCOCCO: 1397.9
CCCOCCO: 1281.1
CCOCCO: 1284.2
COCCO: 1324.3

Proceed to the following item.
Lookup: Return reported speed of sound; argument: CCCCOCCO
Found: 1288

* * *

conditions: 303.15 K; Liquid
± gives the expanded uncertainty stated by the source.
compounds and their reported mass density
The answer consists of two parts: a number and, after it, its unit.

CCCCOCCO: 891.697 ± 1.5 kg/m3

Lookup: Return reported mass density; argument: COCCOCCO
Found: 1010.91 ± 1.2 kg/m3

Lookup: Return reported mass density; argument: CCCOCCO
Found: 902.736 ± 0.58 kg/m3

Lookup: Return reported mass density; argument: CCOCCO
Found: 920.457 ± 0.33 kg/m3

Lookup: Return reported mass density; argument: COCCO
Found: 955.471 ± 0.3 kg/m3

* * *

details: 298.15 K; Liquid; Sing-around technique in a fixed-path interferometer
measure-name: speed of sound (m/s)
Response body: numeric value in m/s, unit text excluded.

Solved entries (count: 4):
CCCOCCO: 1298.6
CCOCCO: 1301.7
COCCO: 1341.6
COCCOCCO: 1415.2

Proceed to the following item.
Lookup: Return reported speed of sound; argument: CCCCOCCO
Found: 1304.9

* * *

conditions: 293.15 K; Liquid
measure-name: mass density (kg/m3)
Response body: numeric value in kg/m3, unit text excluded.

Solved entries (count: 4):
COCCO: 964.656
CCOCCO: 929.545
CCCCOCCO: 900.094
CCCOCCO: 911.515

Proceed to the following item.
Lookup: Return reported mass density; argument: COCCOCCO
Found: 1019.81
